Listed here: items and their measured Kd.
ASSAY_TARGET: T1, EsCas13d, nuclease-dead (Eubacterium siraeum, UniProt B0MS50, R295A;H300A;R849A;H854A)
T1 sequence: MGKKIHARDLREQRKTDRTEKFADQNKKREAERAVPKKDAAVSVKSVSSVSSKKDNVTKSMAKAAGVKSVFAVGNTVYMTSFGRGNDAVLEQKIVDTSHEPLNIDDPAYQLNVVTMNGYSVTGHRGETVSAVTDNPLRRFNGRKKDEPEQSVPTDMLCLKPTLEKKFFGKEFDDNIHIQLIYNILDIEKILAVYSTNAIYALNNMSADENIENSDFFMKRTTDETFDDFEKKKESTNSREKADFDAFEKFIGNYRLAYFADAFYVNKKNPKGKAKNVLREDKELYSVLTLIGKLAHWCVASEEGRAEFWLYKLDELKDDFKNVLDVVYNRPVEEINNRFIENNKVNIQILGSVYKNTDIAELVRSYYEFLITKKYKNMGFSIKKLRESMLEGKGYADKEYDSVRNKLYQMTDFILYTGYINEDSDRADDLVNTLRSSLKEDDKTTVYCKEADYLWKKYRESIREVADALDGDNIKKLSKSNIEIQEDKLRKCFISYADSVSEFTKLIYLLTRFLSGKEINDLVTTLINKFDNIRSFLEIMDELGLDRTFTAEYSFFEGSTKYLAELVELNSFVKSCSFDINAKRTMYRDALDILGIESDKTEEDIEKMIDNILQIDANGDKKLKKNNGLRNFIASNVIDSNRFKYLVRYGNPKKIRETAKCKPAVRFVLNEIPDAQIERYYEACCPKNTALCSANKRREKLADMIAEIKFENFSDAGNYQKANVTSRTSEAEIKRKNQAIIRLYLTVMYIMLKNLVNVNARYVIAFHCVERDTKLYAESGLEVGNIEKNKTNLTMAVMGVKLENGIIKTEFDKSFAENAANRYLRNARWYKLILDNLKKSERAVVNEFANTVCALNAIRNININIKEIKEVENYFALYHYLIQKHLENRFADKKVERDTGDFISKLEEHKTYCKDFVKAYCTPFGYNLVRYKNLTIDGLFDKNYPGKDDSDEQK
ASSAY_SUMMARY: crRNA (strand 1, pre-loaded); Mg2+; 40 mM Tris-HCl pH 7.5, 150 mM NaCl, 6 mM MgCl2, 1 mM DTT, 0.1% Tween-20, 0.2 mg/ml BSA; 25 C; 10 min per concentration, then washed
CONDITIONS_USED: tags: His6-TwinStrep-SUMO cleaved; N-terminal SNAP kept (SNAP-Surface 488); label: 3' end held by stalled T7 RNA polymerase
MEASURED_QUANTITY: Kd (nM)

BINDER	MEASURED_QUANTITY	RECORDED_RESULT
target 3 insU 3' of 22,insU 3' of 5 (mixed) RNA 1: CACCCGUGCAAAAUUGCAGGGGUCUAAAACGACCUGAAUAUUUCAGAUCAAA RNA 2: GGGAAUGGAUCCACAUCUACGAAUUCGUUUUUUGAUCUGAAAUAUUCAUGGUCUGCAGAUCGGAAGAGCACACGU	Kd	6.45
target 1 U3A,A9C (mixed) RNA 1: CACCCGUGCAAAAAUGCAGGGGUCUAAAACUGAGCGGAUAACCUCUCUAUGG RNA 2: GGGAAUGGAUCCACAUCUACGAAUUCGUACCAUAGAGAGGUUCUCCGCACACCGAGAUCGGAAGAGCACACGU	Kd	14.6
